// note: IC50 values for mPDE10A7 (Mus musculus, UniProt Q8CA95) were reported in different studies
Parameter measured: IC50 (µM)

Past entries and their recorded results:
> print(dat)
                                     smiles  parameter.measured  quantity.unit  observed.result
1  COc1cc2nncc(-c3ccc(N[C@H]4CCCc5c(Br)cccc54)nc3)c2cc1OC                IC50             µM            0.258
2  COc1cc2nncc(-c3ccc(C(C)=O)c(F)c3)c2cc1OC                IC50             µM            0.254

[I] COc1cc2nncc(-c3ccc(CN4CC(C(=O)O)C4)cc3)c2cc1OC
[II] COc1cc2nncc(-c3ccc(N[C@@H]4CCCc5ncccc54)nc3)c2cc1OC
[III] COc1cc2nncc(-c3ccc(N4CCN(c5ncc(Cl)cc5Cl)CC4)nc3)c2cc1OC
[IV] CCOC(=O)c1n[nH]c2ccc(-c3cnnc4cc(OC)c(OC)cc34)cc12
[V] COc1cc2nncc(-c3ccc(N4CCC(O)(c5ccccc5)CC4)nc3)c2cc1OC
Please order the records by their reported IC50, lowest number first. Answer by listing the labels in the order asked for.
II, IV, V, I, III

[I] COc1cc2nncc(-c3ccc(Nc4ccc(N(C)C)cc4)nc3)c2cc1OC
[II] COc1cc2nncc(-c3ccc(N4CCC(C(=O)N5CCOCC5)CC4)nc3)c2cc1OC
In terms of reported IC50, does I or II have the smaller number? Your answer should be the label of the entry you select.
II
(II: 0.00563 µM, I: 0.179 µM)

----------
pIC50: −log10 of the molar value.
Field pIC50: reported value for mPDE10A7 (Mus musculus); entries drawn from several documents.
Parameter measured: pIC50

> print(dat)
                                     smiles  parameter.measured  observed.result
1    COCCNc1ccc(-c2cnnc3cc(OC)c(OC)cc23)cn1               pIC50             7.44
2  COc1cc2nncc(-c3ccc(N4CCC(O)(c5ccccn5)CC4)nc3)c2cc1OC               pIC50             8.25
3  COc1cc2nncc(N3CCc4c(OCC5CC5)cccc4C3=O)c2cc1OC               pIC50             6.61
4  C=Cc1cc(-c2cnnc3cc(OC)c(OC)cc23)cnc1NC(C)C               pIC50             8.77
5  COc1cc2nncc(-c3ccc(N4CCN(CC5CC5)CC4)nc3)c2cc1OC               pIC50             7.99

[a] COc1cc2nncc(-c3ccnc(N4CCN(C)C(=O)C4)c3)c2cc1OC
[b] COc1cc2nccc(-c3cnc(N4CCC(C(C)(C)O)CC4)c(C)c3)c2cc1OC
Would you mind telling me which has the lower recorded pIC50 between a and b ? State the label of the item chosen.
a
(a: 7.25, b: 8.37)
